# System: SF268
# assay comment: HSA synergy score (Combenefit); higher = more synergy
# conditions: exposure time: 72 h

{"columns": ["compound", "assay system", "HSA synergy score"],
 "data": [
  ["CCC(=O)N1CCN(c2ccc(-n3c(=O)ccc4cnc5ccc(-c6cnc7ccccc7c6)cc5c43)cc2C(F)(F)F)CC1 [Torin1] + O=c1[nH]c2ccccc2n1C1CCN(Cc2ccc(-c3[nH]c4cc5ncnc5cc4nc3-c3ccccc3)cc2)CC1 [Akt inhibitor VIII]", "SF268", 13.5],
  ["CC(=O)O[C@@]12CO[C@@H]1C[C@H](O)[C@@]1(C)C(=O)[C@H](O)C3=C(C)[C@@H](OC(=O)[C@H](O)[C@@H](NC(=O)OC(C)(C)C)c4ccccc4)C[C@@](O)([C@@H](OC(=O)c4ccccc4)[C@H]21)C3(C)C [Docetaxel] + CCC(=O)N1CCN(c2ccc(-n3c(=O)ccc4cnc5ccc(-c6cnc7ccccc7c6)cc5c43)cc2C(F)(F)F)CC1 [Torin1]", "SF268", 12.8]
]}

* * *

# Tested on: U118
# assay comment: Bliss synergy score (Combenefit); higher = more synergy; extreme values may be limits of the assay
# conditions: exposure time: 72 h

{"columns": ["compound", "Bliss synergy score"],
 "data": [
  ["CO[C@H]1C[C@@H]2CC[C@@H](C)[C@@](O)(O2)C(=O)C(=O)N2CCCC[C@H]2C(=O)O[C@H]([C@H](C)C[C@@H]2CC[C@@H](O)[C@H](OC)C2)CC(=O)[C@H](C)/C=C(\\C)[C@@H](O)[C@@H](OC)C(=O)[C@H](C)C[C@H](C)/C=C/C=C/C=C/1C [Rapamycin] + Cc1cc([C@@H](C)Nc2ccccc2C(=O)O)c2nc(N3CCOCC3)cc(=O)n2c1 [AZD6482]", 0],
  ["CC(=O)O[C@@]12CO[C@@H]1C[C@H](O)[C@@]1(C)C(=O)[C@H](O)C3=C(C)[C@@H](OC(=O)[C@H](O)[C@@H](NC(=O)OC(C)(C)C)c4ccccc4)C[C@@](O)([C@@H](OC(=O)c4ccccc4)[C@H]21)C3(C)C [Docetaxel] + O=c1[nH]c2ccccc2n1C1CCN(Cc2ccc(-c3[nH]c4cc5ncnc5cc4nc3-c3ccccc3)cc2)CC1 [Akt inhibitor VIII]", 5.46],
  ["C#Cc1cccc(Nc2ncnc3cc(OCCOC)c(OCCOC)cc23)c1 [Erlotinib] + O=c1[nH]c2ccccc2n1C1CCN(Cc2ccc(-c3[nH]c4cc5ncnc5cc4nc3-c3ccccc3)cc2)CC1 [Akt inhibitor VIII]", 4.68]
]}

* * *

# Tested on: AM38
# assay comment: Chou-Talalay combination index (dimensionless); higher = less synergy (more antagonism)
# conditions: exposure time: 72 h
Listing of recorded Chou-Talalay combination index by entry.

{"columns": ["molecule", "Chou-Talalay combination index"],
 "data": [
  ["CC(=O)O[C@@]12CO[C@@H]1C[C@H](O)[C@@]1(C)C(=O)[C@H](O)C3=C(C)[C@@H](OC(=O)[C@H](O)[C@@H](NC(=O)OC(C)(C)C)c4ccccc4)C[C@@](O)([C@@H](OC(=O)c4ccccc4)[C@H]21)C3(C)C [Docetaxel] + CCC(=O)N1CCN(c2ccc(-n3c(=O)ccc4cnc5ccc(-c6cnc7ccccc7c6)cc5c43)cc2C(F)(F)F)CC1 [Torin1]", 0.895],
  ["CCCCCCCCCCCC1=C(O)C(=O)C=C(O)C1=O [Embelin] + O=c1[nH]c2ccccc2n1C1CCN(Cc2ccc(-c3[nH]c4cc5ncnc5cc4nc3-c3ccccc3)cc2)CC1 [Akt inhibitor VIII]", 0.773],
  ["CO[C@H]1C[C@@H]2CC[C@@H](C)[C@@](O)(O2)C(=O)C(=O)N2CCCC[C@H]2C(=O)O[C@H]([C@H](C)C[C@@H]2CC[C@@H](O)[C@H](OC)C2)CC(=O)[C@H](C)/C=C(\\C)[C@@H](O)[C@@H](OC)C(=O)[C@H](C)C[C@H](C)/C=C/C=C/C=C/1C [Rapamycin] + C[C@@H](Oc1cc(-c2cnn(C3CCNCC3)c2)cnc1N)c1c(Cl)ccc(F)c1Cl [Crizotinib]", 1.07]
]}

* * *

# Tested on: U87
# assay comment: Loewe synergy score (Combenefit); higher = more synergy; extreme values may be limits of the assay
# conditions: exposure time: 72 h

{"columns": ["molecule", "assay system", "Loewe synergy score"],
 "data": [
  ["CO[C@H]1C[C@@H]2CC[C@@H](C)[C@@](O)(O2)C(=O)C(=O)N2CCCC[C@H]2C(=O)O[C@H]([C@H](C)C[C@@H]2CC[C@@H](O)[C@H](OC)C2)CC(=O)[C@H](C)/C=C(\\C)[C@@H](O)[C@@H](OC)C(=O)[C@H](C)C[C@H](C)/C=C/C=C/C=C/1C [Rapamycin] + Cc1cc([C@@H](C)Nc2ccccc2C(=O)O)c2nc(N3CCOCC3)cc(=O)n2c1 [AZD6482]", "U87", 0],
  ["CCC(=O)N1CCN(c2ccc(-n3c(=O)ccc4cnc5ccc(-c6cnc7ccccc7c6)cc5c43)cc2C(F)(F)F)CC1 [Torin1] + O=c1[nH]c2ccccc2n1C1CCN(Cc2ccc(-c3[nH]c4cc5ncnc5cc4nc3-c3ccccc3)cc2)CC1 [Akt inhibitor VIII]", "U87", 0.347],
  ["CC(=O)O[C@@]12CO[C@@H]1C[C@H](O)[C@@]1(C)C(=O)[C@H](O)C3=C(C)[C@@H](OC(=O)[C@H](O)[C@@H](NC(=O)OC(C)(C)C)c4ccccc4)C[C@@](O)([C@@H](OC(=O)c4ccccc4)[C@H]21)C3(C)C [Docetaxel] + N#CC(c1ccnc(NCCc2cccnc2)n1)c1nc2ccccc2s1 [AS601245]", "U87", 0.835],
  ["C#Cc1cccc(Nc2ncnc3cc(OCCOC)c(OCCOC)cc23)c1 [Erlotinib] + N#CC(c1ccnc(NCCc2cccnc2)n1)c1nc2ccccc2s1 [AS601245]", "U87", 0],
  ["C#Cc1cccc(Nc2ncnc3cc(OCCOC)c(OCCOC)cc23)c1 [Erlotinib] + O=c1[nH]c2ccccc2n1C1CCN(Cc2ccc(-c3[nH]c4cc5ncnc5cc4nc3-c3ccccc3)cc2)CC1 [Akt inhibitor VIII]", "U87", 0],
  ["CCCCCCCCCCCC1=C(O)C(=O)C=C(O)C1=O [Embelin] + N#CC(c1ccnc(NCCc2cccnc2)n1)c1nc2ccccc2s1 [AS601245]", "U87", 0.927],
  ["Nc1ccn([C@@H]2O[C@H](CO)[C@@H](O)C2(F)F)c(=O)n1 [Gemcitabine] + C[C@@H](Oc1cc(-c2cnn(C3CCNCC3)c2)cnc1N)c1c(Cl)ccc(F)c1Cl [Crizotinib]", "U87", 0.0421],
  ["CC(=O)O[C@@]12CO[C@@H]1C[C@H](O)[C@@]1(C)C(=O)[C@H](O)C3=C(C)[C@@H](OC(=O)[C@H](O)[C@@H](NC(=O)OC(C)(C)C)c4ccccc4)C[C@@](O)([C@@H](OC(=O)c4ccccc4)[C@H]21)C3(C)C [Docetaxel] + C#Cc1cccc(Nc2ncnc3cc(OCCOC)c(OCCOC)cc23)c1 [Erlotinib]", "U87", 0.182],
  ["Cc1cc([C@@H](C)Nc2ccccc2C(=O)O)c2nc(N3CCOCC3)cc(=O)n2c1 [AZD6482] + CCOc1nc(NC(=O)Cc2cc(OC)ccc2OC)cc(N)c1C#N", "U87", 1]
]}

* * *

# Test system: SF268
# assay comment: HSA synergy score (Combenefit); higher = more synergy
# conditions: exposure time: 72 h
recorded metric: HSA synergy score

{"columns": ["compound", "assay system", "recorded metric", "recorded result"],
 "data": [
  ["CCC(=O)N1CCN(c2ccc(-n3c(=O)ccc4cnc5ccc(-c6cnc7ccccc7c6)cc5c43)cc2C(F)(F)F)CC1 [Torin1] + C#Cc1cccc(Nc2ncnc3cc(OCCOC)c(OCCOC)cc23)c1 [Erlotinib]", "SF268", "HSA synergy score", 15.2],
  ["C[C@@H](Oc1cc(-c2cnn(C3CCNCC3)c2)cnc1N)c1c(Cl)ccc(F)c1Cl [Crizotinib] + C=CCc1cccc(/C=N/NC(=O)CN2CCN(Cc3ccccc3)CC2)c1O [PAC-1]", "SF268", "HSA synergy score", 1.21],
  ["CO[C@H]1C[C@@H]2CC[C@@H](C)[C@@](O)(O2)C(=O)C(=O)N2CCCC[C@H]2C(=O)O[C@H]([C@H](C)C[C@@H]2CC[C@@H](O)[C@H](OC)C2)CC(=O)[C@H](C)/C=C(\\C)[C@@H](O)[C@@H](OC)C(=O)[C@H](C)C[C@H](C)/C=C/C=C/C=C/1C [Rapamycin] + C=CCc1cccc(/C=N/NC(=O)CN2CCN(Cc3ccccc3)CC2)c1O [PAC-1]", "SF268", "HSA synergy score", 5.88],
  ["CO[C@H]1C[C@@H]2CC[C@@H](C)[C@@](O)(O2)C(=O)C(=O)N2CCCC[C@H]2C(=O)O[C@H]([C@H](C)C[C@@H]2CC[C@@H](O)[C@H](OC)C2)CC(=O)[C@H](C)/C=C(\\C)[C@@H](O)[C@@H](OC)C(=O)[C@H](C)C[C@H](C)/C=C/C=C/C=C/1C [Rapamycin] + CCOc1nc(NC(=O)Cc2cc(OC)ccc2OC)cc(N)c1C#N [JNK inhibitor VIII]", "SF268", "HSA synergy score", 0.46]
]}
